Test system: BT-549 breast
measurement_description: NCI tumour cell line growth inhibition, 48 h

- compound: "Cc1ccc(OCC2OC(C#N)C(Oc3ccc(C)cc3)C2Oc2ccc(C)cc2)cc1 (stereo not drawn)"
  TGI: "> 100 µM"
- compound: "N#CC(=S)Nc1ccc(Cl)c(Cl)c1"
  TGI: "> 55.1 µM"
- compound: "Nc1ncnc2c1nc(-c1ccccc1)n2C1OC(CO)C(O)C1O (stereo not drawn)"
  TGI: "> 100 µM"

###

Each entry below lists one item and its recorded TGI value.
Test system: 786-0 renal
measurement_description: NCI tumour cell line growth inhibition, 48 h

- molecule: "Cc1ccc2c(c1)C(=O)C(Cc1ccccc1C(=O)O)C2 (centres undefined)"
  TGI: "> 100 µM"
- molecule: "COC(=O)C1=CN=C(C(=O)OC)NN1"
  TGI: "> 100 µM"
- molecule: "CCc1ccccc1NC(=O)CCc1n[nH]c(=S)o1"
  TGI: "> 100 µM"
- molecule: "c1ccc(C2C3=C(CCCC3)Nc3nc4cc5ccccc5cc4n32)cc1 (centres undefined)"
  TGI: "> 100 µM"
- molecule: "CC(=O)O[C@H]1C(=O)O[C@@H]2C[C@H]3C(C)=CC(=O)[C@@H](O)[C@]3(C)[C@H]3[C@@]4(O)OC[C@]32[C@@H]1[C@@H](C)[C@H]4O"
  TGI: "0.14 µM"
- molecule: "CC(=O)OCc1cc(OC(C)=O)cnc1COC(C)=O"
  TGI: "> 100 µM"
- molecule: "Nc1ccccc1N/C(=C\\C(=O)C(Cl)(Cl)Cl)c1ccccc1"
  TGI: "54.3 µM"
- molecule: "N.N.N.N.N.N.[I-].[Os]"
  TGI: "> 100 µM"
- molecule: "C=C(C)CC1=C(OCC)C(OC)(OCC)C1=O (centres undefined)"
  TGI: "> 100 µM"

###

Each entry below lists one item and its recorded TGI value.
Test system: KM20L2 colon
measurement_description: NCI tumour cell line growth inhibition, 48 h
Where a SMILES comes first, the peptide text is derived from it.

- compound: "Nc1ncnc(NC2C=C(CO)C(O)C2O)c1[N+](=O)[O-] (stereo not given)"
  TGI: "> 100 µM"
- compound: "COC(=O)/C(C#N)=C1\\CCC(O)N1C (stereo not given)"
  TGI: "> 100 µM"
- compound: "O=C(NCc1ccccc1)c1cc2cc(O)c(O)cc2cn1"
  TGI: "84.6 µM"
- compound: "COc1cc(-c2cc(=O)c3ccccc3o2)ccc1N"
  TGI: "> 100 µM"
- compound: "C=C[C@]1(C)CCC2=C(CCC3C2(C)CCC[C@]3(C)CO)C1 (stereo not given in full)"
  TGI: "42.3 µM"
- compound: "CNNCc1ccc(C(=O)NC(C)C)cc1"
  TGI: "> 500 µM"
- compound: "CC(C)CC(NC(=O)C(CC(C)C)NC(=O)C(Cc1cnc[nH]1)NC(=O)C(C)NC(=O)C(NC(=O)C(C)NC(=O)C(Cc1c[nH]c2ccccc12)NC(=O)C(CCC(=O)O)NC(=O)C(N)Cc1ccccc1)C(C)C)C(N)=O (stereo not given) (H-FEWAVAHLL-NH2; configuration not given here)"
  TGI: "> 100 µM"
- compound: "CC1(C)OC(C(N)=O)=C(C(N)=O)O1"
  TGI: "> 100 µM"
- compound: "COC(=O)N/N=C(/CCN1CCCC1)CC(c1ccccc1)c1c(O)c2ccccc2oc1=O (stereo not given)"
  TGI: "> 100 µM"
- compound: "ClC1CCC2OOC1O2 (stereo not given)"
  TGI: "> 100 µM"
